In this section, each of the compounds is paired with its reported IC50.
# SYSTEM_TESTED: SSTR5 (Homo sapiens, UniProt P35346)
# Sequence (P35346 whole entry): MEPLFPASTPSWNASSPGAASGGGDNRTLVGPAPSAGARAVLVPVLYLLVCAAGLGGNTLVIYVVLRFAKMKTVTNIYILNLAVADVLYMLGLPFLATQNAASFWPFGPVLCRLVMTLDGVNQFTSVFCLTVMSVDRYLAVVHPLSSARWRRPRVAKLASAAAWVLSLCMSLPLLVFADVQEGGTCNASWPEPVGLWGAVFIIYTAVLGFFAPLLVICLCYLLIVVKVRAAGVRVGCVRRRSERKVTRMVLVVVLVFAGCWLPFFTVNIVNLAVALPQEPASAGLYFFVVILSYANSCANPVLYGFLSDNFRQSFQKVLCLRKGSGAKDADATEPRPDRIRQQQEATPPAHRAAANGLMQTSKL
# ASSAY_OVERVIEW: SSTR5 receptor-ligand binding assay, CHO-K1 cell membranes, 125I-SRIF radioligand
# Design: expressed in transfected cells
# CONDITION: Table 4, read-out: Bnd IC50
Quick note: give the figure in nM, leave out the unit.

Worked cases, answers included:
# COMPOUND, IC50 / nM
measured = [
    ("CC(C)(C)n1cc(CN2CCC3(CC2)CC(c2ccc(C(=O)O)cc2)=NO3)c(-c2ccc(F)c(Cl)c2)n1 [Example 24]", 2.3),
    ("CCOc1cc(CN2CCC3(CC2)CC(c2ccc(C(=O)O)cc2)=NO3)ccc1-c1nccs1 [Example 18]", 12),
]

IN: # return recorded IC50 for entry CCOc1cc(CN2CCC3(CC2)CC(c2ccc(C(=O)O)cn2)=NO3)cc(OCC)c1-c1ccc(F)cc1 [Example 25]
OUT: 1.2

IN: # return recorded IC50 for entry CCOc1ccc(-c2cc(F)c(F)cc2F)c(CN2CCC3(CC2)CC(c2ccc(C(=O)O)cc2)=NO3)c1 [Example 10]
OUT: 1.8

----------
In this section, each of the compounds is paired with its reported log10 IC50.
# SYSTEM_TESTED: SSTR5 (Homo sapiens, UniProt P35346)
# ASSAY_OVERVIEW: Functional assay of inhibition of SSTR5 mediated cyclic AMP production in SSTR5 expressing CHO cells
# Assay type: cell-based, human
# CONDITION: forskolin (FSK) plus SS-28, read-out: cAMP IC50
Where a name gives a salt, the structure may show the parent alone.
All values: base-10 log of IC50 in nM.

Worked cases, answers included:
# COMPOUND, OBSERVED_RESULT
measured = [
    ("CCOc1cc(CN2CCC3(CC2)CC(c2ccc(C(=O)O)cc2)=NO3)cc(OCC)c1-c1ccc(F)cc1 [Example 1, TFA salt]", -0.14),
    ("O=C(O)c1ccc(C2=NOC3(CCN(Cc4cc(Cl)cc(C5CC5)c4)CC3)C2)cc1 [Example 85, TFA salt]", 0.35),
    ("CC1(C)CC2(CC2)c2cc(CN3CCC4(CC3)CC(c3ccc(C(=O)O)cc3)=NO4)ccc2O1 [Example 95, TFA salt]", 1.27),
    ("CC(C)n1cc(CN2CCC3(CC2)CC(c2ccc(C(=O)O)cc2)=NO3)c2c(-c3ccc(F)nc3)cccc21 [Example 40, TFA salt]", -0.40),
    ("O=C(O)c1ccc(C2=NOC3(CCN(Cc4ccc(Cl)c(Br)c4)CC3)C2)cc1 [Example 70]", 1.42),
]

IN: # return recorded log10 IC50 for entry Cc1cc(-c2cccnc2)c(CN2CCC3(CC2)CC(c2ccc(C(=O)O)cc2)=NO3)cc1C(F)(F)F [Example 68]
OUT: 1.12

IN: # return recorded log10 IC50 for entry CC1(C)CCS(=O)(=O)c2c(Cl)cc(CN3CCC4(CC3)CC(c3ccc(C(=O)O)cc3)=NO4)cc21 [Example 99, TFA salt]
OUT: 2.67

IN: # return recorded log10 IC50 for entry CC(C)n1cc(CN2CCC3(CC2)CC(c2ccc(C(=O)O)cc2)=NO3)c2c(-c3cc(F)c(F)cc3F)cccc21 [Example 41, TFA salt]
OUT: -0.52

IN: # return recorded log10 IC50 for entry CCOc1cc(CN2CCC3(CC2)CC(c2ccc(C(=O)O)cc2)=NO3)ccc1-c1nccs1 [Example 18]
OUT: 1.04
